Target: human ether-à-go-go-related gene (hERG) potassium channel (human);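 note: peak tail current of the secondary pulse compared with the same well before compound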
Sequence (Q12809 whole entry, looked up): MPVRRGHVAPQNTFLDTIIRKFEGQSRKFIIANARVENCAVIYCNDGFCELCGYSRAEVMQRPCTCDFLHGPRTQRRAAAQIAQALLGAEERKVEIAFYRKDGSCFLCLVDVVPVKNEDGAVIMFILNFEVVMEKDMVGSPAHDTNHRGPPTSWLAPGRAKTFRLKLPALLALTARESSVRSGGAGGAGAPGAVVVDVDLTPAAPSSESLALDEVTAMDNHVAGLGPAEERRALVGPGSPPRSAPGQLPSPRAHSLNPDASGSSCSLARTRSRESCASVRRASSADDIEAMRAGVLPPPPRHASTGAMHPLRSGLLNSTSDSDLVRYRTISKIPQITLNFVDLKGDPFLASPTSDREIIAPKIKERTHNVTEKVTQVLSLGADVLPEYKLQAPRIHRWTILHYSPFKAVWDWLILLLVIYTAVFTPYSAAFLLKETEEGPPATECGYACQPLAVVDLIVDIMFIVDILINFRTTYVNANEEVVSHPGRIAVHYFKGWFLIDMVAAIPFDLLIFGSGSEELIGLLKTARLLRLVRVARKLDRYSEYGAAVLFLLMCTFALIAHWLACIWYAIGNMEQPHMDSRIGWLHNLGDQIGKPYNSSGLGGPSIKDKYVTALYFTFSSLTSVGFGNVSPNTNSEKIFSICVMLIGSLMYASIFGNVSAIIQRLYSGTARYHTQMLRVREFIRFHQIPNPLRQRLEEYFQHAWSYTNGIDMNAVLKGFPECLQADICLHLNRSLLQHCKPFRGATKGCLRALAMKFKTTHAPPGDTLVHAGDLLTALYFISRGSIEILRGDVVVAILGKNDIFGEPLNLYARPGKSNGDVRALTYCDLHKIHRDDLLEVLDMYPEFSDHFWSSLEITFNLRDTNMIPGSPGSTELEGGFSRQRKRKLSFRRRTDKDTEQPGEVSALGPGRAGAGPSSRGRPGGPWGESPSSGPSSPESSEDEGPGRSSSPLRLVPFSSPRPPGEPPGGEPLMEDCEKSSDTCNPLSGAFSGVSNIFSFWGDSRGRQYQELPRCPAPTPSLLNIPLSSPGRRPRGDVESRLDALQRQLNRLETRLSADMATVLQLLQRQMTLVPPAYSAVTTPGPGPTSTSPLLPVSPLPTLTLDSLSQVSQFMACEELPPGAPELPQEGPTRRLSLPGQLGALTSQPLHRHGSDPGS
Assay: primary screen, population patch clamp on CHO cells stably expressing hERG; higher = less effect of the substance
Out of some 310,000 compounds screened, about 14,000 (4.5%) showed an effect of 50% or more. The effect is printed as a negative number. The list comes from a sample in which strong results are over-represented; it also holds close analogues and randomly drawn compounds.
outcome-measure: hERG current change (%, negative = inhibition) at 10uM (%)
Note: unit % is implicit; provide only the numeric part.

Below, each entry is followed by its recorded hERG current change (%, negative = inhibition) at 10uM result.
{"molecule": "CCOc1ccc(CN2CCCC(CNC(=O)c3ccc(F)cc3)C2)cc1CO (stereo not shown)", "assay-target": "human ether-à-go-go-related gene (hERG) potassium channel (human)", "reading": -68.1}
{"molecule": "O=C(CN(Cc1ccco1)C(=O)c1cc(=O)[nH]c2ccccc12)Nc1ccccc1C(F)(F)F", "assay-target": "human ether-à-go-go-related gene (hERG) potassium channel (human)", "reading": -12}
{"molecule": "CNC(=O)c1ccc(NC(=O)CC2SC(N3CCCC3)=NC2=O)cc1 (stereo not shown)", "assay-target": "human ether-à-go-go-related gene (hERG) potassium channel (human)", "reading": -4.89}
{"molecule": "Cc1ccc(C(=O)c2c3ccc(C(F)(F)F)cc3[n+]([O-])n2CCCC(N)=O)cc1", "assay-target": "human ether-à-go-go-related gene (hERG) potassium channel (human)", "reading": -62.9}
{"molecule": "Cc1ccc(C)c(Nc2cc(C)nc(-c3ccccc3O)n2)c1", "assay-target": "human ether-à-go-go-related gene (hERG) potassium channel (human)", "reading": 15}

Record lookup: for human ether-à-go-go-related gene (hERG) potassium channel (human), what hERG current change (%, negative = inhibition) at 10uM belongs to Cn1c(=O)c2c(nc(Sc3ccccc3N)n2C)n(C)c1=O ?
11.4

Next molecule up: CC(=O)c1ccc(NC(=O)C(=O)c2cn(CC(=O)N3CCCCC3)c3ccccc23)cc1
6.65

Also Cc1ccc(-c2cn(-c3ccccc3)c3[n+]2CCCS3)cc1.[Br-] , if possible.
-29.1

Now give it for O=C(Cn1cncn1)N/N=C/c1cc([N+](=O)[O-])ccc1O too.
1.67

====

Target: human ether-à-go-go-related gene (hERG) potassium channel (human);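 note: peak tail current of the secondary pulse compared with the same well before compound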
Assay: primary screen, population patch clamp on CHO cells stably expressing hERG; higher = less effect of the substance
Experimental: Briefly, Chinese hamster ovary (CHO) cells stably expressing the hERG channel were dislodged from tissue culture flasks and dispensed into PPC plates. […] During the recording, background leak currents were estimated by a 100 ms step to -80 mV from an initial holding potential of -70 mV and subtracted from the subsequent current measurement. The campaign was conducted in two phases using slight differences in recording protocol. […]
Hit rate of the full screen: of about 310,000 compounds, about 14,000 (4.5%) showed an effect of 50% or more. Effects have a minus sign here. Many of the other results were omitted from the sample, so strong results are more common in it than they were.
Kind request: treat -50% as inclusive, so hERG current change (%, negative = inhibition) at 10uM at -50% or higher is T, anything lower is F.

{"compound": "CC(C)Cn1nc(C(=O)NCc2ccccc2CN2CCCC2)c2ccccc2c1=O", "class-label": "T"}
{"compound": "COc1ccc(C(=O)NC(=S)Nc2ccc3[nH]c(=O)[nH]c3c2)c(OC)c1", "class-label": "T"}
{"compound": "COc1cccc(NC(=S)N(CCCN2CCC(C)CC2)Cc2cccs2)c1", "class-label": "F"}
{"compound": "CN(C)CC/C=C1\\c2ccccc2Sc2ccc(Cl)cc21.Cl", "class-label": "F"}
{"compound": "O=C(CCCCn1c(=O)[nH]c2ccsc2c1=O)NCC1CCCO1 (centres unmarked)", "class-label": "T"}
{"compound": "Cc1ccc2nc(SCC(=O)Nc3cccc4ccccc34)nc(=O)n2c1", "class-label": "T"}
{"compound": "Cc1ccc(CN2C(=O)c3ccccc3Sc3ccc(C(=O)NCCN4CCOCC4)cc32)cc1", "class-label": "T"}
{"compound": "O.c1ccc2c(CN3CCN(C4CCCCC4)CC3)c[nH]c2c1", "class-label": "T"}

Record Cc1cccc(N(CC(=O)N/N=C/c2ccccc2C(=O)O)S(C)(=O)=O)c1C ; criterion: hERG current change (%, negative = inhibition) at 10uM no lower than -50%. Met?
T

And the next one, O=C(NCCN1CCOCC1)c1ccc2c(c1)N(Cc1ccccc1F)C(=O)c1ccccc1S2 ?
T

Now the same for CN(C)CC/C=C1/c2ccccc2Sc2ccc(Cl)cc21.Cl
F

Item: CCCOc1ccccc1C1CC(=O)NC2=C1C(=O)CCC2 (centres unmarked)
T

One more compound: COc1ccc(NC(=S)N(CCN(C)C)Cc2cccs2)cc1
T
